Below: a set of entries, each annotated with reported Percentage of living cells /P %/.
Tested on: GR (GRMT/F6, mammary gland cancer cells of GR-strain mice)
Assay: 48 h incubation with the salts: cell fluorescence, living cells, multiplication coefficient (Table 2)
Format: cell-based, Murine
Conditions: 48 hs, 50 mcg/ml
// return numeric value only (unit: %, not printed)

[[record]]
molecule = "CC1=C(CCC(=O)O)c2cc3[nH]c(cc4nc(cc5[nH]c(cc1n2)c(C(C)NC(Cc1c[nH]c2ccccc12)C(=O)O)c5C)C(C(C)NC(Cc1c[nH]c2ccccc12)C(=O)O)=C4C)c(C)c3CCC(=O)O.N=C(N)NCCC[C@H](N)C(=O)O.N=C(N)NCCC[C@H](N)C(=O)O (centres unmarked)"
assay_readout = "Percentage of living cells /P %/"
quantity_unit = "%"
reading = 62


[ask] Which value of Percentage of living cells /P %/ has been reported for CC1=C(CCC(=O)O)c2cc3[nH]c(cc4nc(cc5[nH]c(cc1n2)c(C(C)NC(C)C(=O)O)c5C)C(C(C)NC(C)C(=O)O)=C4C)c(C)c3CCC(=O)O.N=C(N)NCCC[C@H](N)C(=O)O.N=C(N)NCCC[C@H](N)C(=O)O (centres unmarked) in the records?
[reply] 50

---

Below: a set of entries, each annotated with reported Percentage of living cells /P %/.
System: HBT-39/w (breast cancer cells)
Test: 48 h incubation with the salts: cell fluorescence, living cells, multiplication coefficient (Table 2)
Assay type: cell-based, Human
Conditions: 48 hs, 50 mcg/ml
// return numeric value only (unit: %, not printed)

Use these answered entries as a reference point.
[[record]]
compound = "CC1=C(CCC(=O)O)c2cc3[nH]c(cc4nc(cc5[nH]c(cc1n2)c(C(C)NC(CCCCN)C(=O)O)c5C)C(C(C)NC(CCCCN)C(=O)O)=C4C)c(C)c3CCC(=O)O.N=C(N)NCCC[C@H](N)C(=O)O.N=C(N)NCCC[C@H](N)C(=O)O (stereo not drawn) [PP/Lys/2 /Arg/2, l-arginine di/N-lysyl/-protoporphyrinate]"
quantity_unit = "%"
reading = 47

[[record]]
compound = "CC1=C(CCC(=O)O)c2cc3[nH]c(cc4nc(cc5[nH]c(cc1n2)c(C(C)NC(CC(=O)O)C(=O)O)c5C)C(C(C)NC(CC(=O)O)C(=O)O)=C4C)c(C)c3CCC(=O)O.N=C(N)NCCC[C@H](N)C(=O)O.N=C(N)NCCC[C@H](N)C(=O)O (stereo not drawn) [PP/Asp/2 /Arg/2]"
quantity_unit = "%"
reading = 48

[[record]]
compound = "CC1=C(CCC(=O)O)c2cc3[nH]c(cc4nc(cc5[nH]c(cc1n2)c(C(C)NC(C)C(=O)O)c5C)C(C(C)NC(C)C(=O)O)=C4C)c(C)c3CCC(=O)O.N=C(N)NCCC[C@H](N)C(=O)O.N=C(N)NCCC[C@H](N)C(=O)O (stereo not drawn) [PP/Ala/2 /Arg/2]"
quantity_unit = "%"
reading = 17

[[record]]
compound = "CC1=C(CCC(=O)O)c2cc3[nH]c(cc4nc(cc5[nH]c(cc1n2)c(C(C)NC(Cc1c[nH]c2ccccc12)C(=O)O)c5C)C(C(C)NC(Cc1c[nH]c2ccccc12)C(=O)O)=C4C)c(C)c3CCC(=O)O.N=C(N)NCCC[C@H](N)C(=O)O.N=C(N)NCCC[C@H](N)C(=O)O (stereo not drawn) [PP/Trp/2 /Arg/2]"
quantity_unit = "%"
reading = 18

[[record]]
compound = "CC1=C(CCC(=O)O)c2cc3[nH]c(cc4nc(cc5[nH]c(cc1n2)c(C(C)NC(CS)C(=O)O)c5C)C(C(C)NC(CS)C(=O)O)=C4C)c(C)c3CCC(=O)O.N=C(N)NCCC[C@H](N)C(=O)O.N=C(N)NCCC[C@H](N)C(=O)O (stereo not drawn) [PP/Cys/2 /Arg/2]"
quantity_unit = "%"
reading = 42

[[record]]
compound = "CC1=C(CCC(=O)O)c2cc3[nH]c(cc4nc(cc5[nH]c(cc1n2)c(C(C)NC(CO)C(=O)O)c5C)C(C(C)NC(CO)C(=O)O)=C4C)c(C)c3CCC(=O)O.N=C(N)NCCC[C@H](N)C(=O)O.N=C(N)NCCC[C@H](N)C(=O)O (stereo not drawn) [PP/Ser/2 /Arg/2, l-arginine di/N-seryl/-protoporphyrinate]"
quantity_unit = "%"
reading = 33


[ask] Which value of Percentage of living cells /P %/ has been reported for CSCCC(NC(C)C1=C(C)c2cc3[nH]c(cc4nc(cc5[nH]c(cc1n2)c(C)c5C(C)NC(CCSC)C(=O)O)C(C)=C4CCC(=O)O)c(CCC(=O)O)c3C)C(=O)O.N=C(N)NCCC[C@H](N)C(=O)O.N=C(N)NCCC[C@H](N)C(=O)O (stereo not drawn) [PP/Met/2 /Arg/2] in the records?
[reply] 8

[ask] Thanks! And CC1=C(CCC(=O)O)c2cc3[nH]c(cc4nc(cc5[nH]c(cc1n2)c(C(C)NC(CCC(=O)O)C(=O)O)c5C)C(C(C)NC(CCC(=O)O)C(=O)O)=C4C)c(C)c3CCC(=O)O.N=C(N)NCCC[C@H](N)C(=O)O.N=C(N)NCCC[C@H](N)C(=O)O (stereo not drawn) [PP/Glu/2 /Arg/2] ?
[reply] 66

[ask] Thanks! And CC1=C(CCC(=O)O)c2cc3[nH]c(cc4nc(cc5[nH]c(cc1n2)c(C(C)NC(Cc1ccccc1)C(=O)O)c5C)C(C(C)NC(Cc1ccccc1)C(=O)O)=C4C)c(C)c3CCC(=O)O.N=C(N)NCCC[C@H](N)C(=O)O.N=C(N)NCCC[C@H](N)C(=O)O (stereo not drawn) [PP/Fen/2 /Arg/2] ?
[reply] 11

---

System: CL
Assay: 48 h incubation with the salts: cell fluorescence, living cells, multiplication coefficient (Table 1)
Assay type: cell-based
Settings: 48 hs, 50 mcg/ml
Classification field: enter 1 for Percentage of living cells /P %/ values not below 30%, -1 for values below it.

[[record]]
compound = "CC1=C(CCC(=O)O)c2cc3[nH]c(cc4nc(cc5[nH]c(cc1n2)c(C(C)NC(Cc1c[nH]c2ccccc12)C(=O)O)c5C)C(C(C)NC(Cc1c[nH]c2ccccc12)C(=O)O)=C4C)c(C)c3CCC(=O)O.N=C(N)NCCC[C@H](N)C(=O)O.N=C(N)NCCC[C@H](N)C(=O)O (stereo not drawn)"
label = 1

[[record]]
compound = "CC1=C(CCC(=O)O)c2cc3[nH]c(cc4nc(cc5[nH]c(cc1n2)c(C(C)NC(CC(=O)O)C(=O)O)c5C)C(C(C)NC(CC(=O)O)C(=O)O)=C4C)c(C)c3CCC(=O)O.N=C(N)NCCC[C@H](N)C(=O)O.N=C(N)NCCC[C@H](N)C(=O)O (stereo not drawn)"
label = 1

[[record]]
compound = "CC1=C(CCC(=O)O)c2cc3[nH]c(cc4nc(cc5[nH]c(cc1n2)c(C(C)NC(CCC(=O)O)C(=O)O)c5C)C(C(C)NC(CCC(=O)O)C(=O)O)=C4C)c(C)c3CCC(=O)O.N=C(N)NCCC[C@H](N)C(=O)O.N=C(N)NCCC[C@H](N)C(=O)O (stereo not drawn)"
label = 1

[[record]]
compound = "CC1=C(CCC(=O)O)c2cc3[nH]c(cc4nc(cc5[nH]c(cc1n2)c(C(C)NC(CO)C(=O)O)c5C)C(C(C)NC(CO)C(=O)O)=C4C)c(C)c3CCC(=O)O.N=C(N)NCCC[C@H](N)C(=O)O.N=C(N)NCCC[C@H](N)C(=O)O (stereo not drawn) [PP/Ser/2 /Arg/2, l-arginine di/N-seryl/-protoporphyrinate]"
label = -1

[[record]]
compound = "CC1=C(CCC(=O)O)c2cc3[nH]c(cc4nc(cc5[nH]c(cc1n2)c(C(C)NC(Cc1ccccc1)C(=O)O)c5C)C(C(C)NC(Cc1ccccc1)C(=O)O)=C4C)c(C)c3CCC(=O)O.N=C(N)NCCC[C@H](N)C(=O)O.N=C(N)NCCC[C@H](N)C(=O)O (stereo not drawn)"
label = -1


[ask] Identify whether the reported Percentage of living cells /P %/ of the following compound is 30% or greater: CSCCC(NC(C)C1=C(C)c2cc3[nH]c(cc4nc(cc5[nH]c(cc1n2)c(C)c5C(C)NC(CCSC)C(=O)O)C(C)=C4CCC(=O)O)c(CCC(=O)O)c3C)C(=O)O.N=C(N)NCCC[C@H](N)C(=O)O.N=C(N)NCCC[C@H](N)C(=O)O (stereo not drawn)
[reply] -1

---

Test system: Hela (cervix uteri cancer cells)
Experiment: 48 h incubation with the salts: cell fluorescence, living cells, multiplication coefficient (Table 1)
Type: cell-based, Human
Settings: 48 hs, 50 mcg/ml
Procedure: New compounds of formula 1 were tested on cell lines. […] 1/ Cell fluorescence /F/: after 48 hs incubation, the cells were washed away, the intensity of fluorescence was measured in a fluorescence microscope and was expressed on an arbitrary scale of 0-4 scores; […] 3/ Cell multiplication coefficient /M/ in the presence of different preparations, expressed as: [formula]
Below: a set of entries, each annotated with reported Percentage of living cells /P %/.
// return numeric value only (unit: %, not printed)

Use these answered entries as a reference point.
[[record]]
molecule = "CC1=C(CCC(=O)O)c2cc3[nH]c(cc4nc(cc5[nH]c(cc1n2)c(C(C)NC(C)C(=O)O)c5C)C(C(C)NC(C)C(=O)O)=C4C)c(C)c3CCC(=O)O.N=C(N)NCCC[C@H](N)C(=O)O.N=C(N)NCCC[C@H](N)C(=O)O (centres unmarked)"
reading = 11

[[record]]
molecule = "CC1=C(CCC(=O)O)c2cc3[nH]c(cc4nc(cc5[nH]c(cc1n2)c(C(C)NC(CC(=O)O)C(=O)O)c5C)C(C(C)NC(CC(=O)O)C(=O)O)=C4C)c(C)c3CCC(=O)O.N=C(N)NCCC[C@H](N)C(=O)O.N=C(N)NCCC[C@H](N)C(=O)O (centres unmarked)"
reading = 38

[[record]]
molecule = "CC1=C(CCC(=O)O)c2cc3[nH]c(cc4nc(cc5[nH]c(cc1n2)c(C(C)NC(CCC(=O)O)C(=O)O)c5C)C(C(C)NC(CCC(=O)O)C(=O)O)=C4C)c(C)c3CCC(=O)O.N=C(N)NCCC[C@H](N)C(=O)O.N=C(N)NCCC[C@H](N)C(=O)O (centres unmarked)"
reading = 33


[ask] Which value of Percentage of living cells /P %/ has been reported for CSCCC(NC(C)C1=C(C)c2cc3[nH]c(cc4nc(cc5[nH]c(cc1n2)c(C)c5C(C)NC(CCSC)C(=O)O)C(C)=C4CCC(=O)O)c(CCC(=O)O)c3C)C(=O)O.N=C(N)NCCC[C@H](N)C(=O)O.N=C(N)NCCC[C@H](N)C(=O)O (centres unmarked) in the records?
[reply] 5

[ask] Thanks! And CC1=C(CCC(=O)O)c2cc3[nH]c(cc4nc(cc5[nH]c(cc1n2)c(C(C)NC(CS)C(=O)O)c5C)C(C(C)NC(CS)C(=O)O)=C4C)c(C)c3CCC(=O)O.N=C(N)NCCC[C@H](N)C(=O)O.N=C(N)NCCC[C@H](N)C(=O)O (centres unmarked) ?
[reply] 55

Source listed as patent US5451599A.
